SYSTEM_TESTED: human epidermal growth factor receptor 2 (HER2), membrane-bound on cells (human, UniProt P04626 23-1255)
ASSAY_COMMENT: cell-based or functional assay
PROPERTY_LABEL: EC50, fab-CypHer5E internalization, AU565 (µg/mL)
Output spec: scalar in µg/mL, unitless text.

A selection of reference data follows.
BINDER	RESULT_VALUE
HuMab 132 (antibody, V domains shown) VH: QVQLVQSGAEVKKPGASVKVSCKASGYTFTSYGISWVRQAPGQGLEWMGWISAYNGNSNYVQKFQGRVTMTTDTTTSTAYMELRSLTSDDTAVYYCAREYSYDSGTYFYYGMDVWGQGTTVTVSS VL: EIVLTQSPATLSLSPGERATLSCRASQSVSSYLAWYQQKPGQAPRLLIYDASNRATGIPARFSGSGSGTDFTLTISSLEPEDFAVYYCQQRSNWPMYTFGQGTKLEIK	0.0114
HuMab 098 (antibody, V domains shown, also called TH1014-098; PC1014-098) VH: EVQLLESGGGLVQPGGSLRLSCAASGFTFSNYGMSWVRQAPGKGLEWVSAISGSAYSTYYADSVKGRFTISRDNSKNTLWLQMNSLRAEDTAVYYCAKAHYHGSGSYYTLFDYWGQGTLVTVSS VL: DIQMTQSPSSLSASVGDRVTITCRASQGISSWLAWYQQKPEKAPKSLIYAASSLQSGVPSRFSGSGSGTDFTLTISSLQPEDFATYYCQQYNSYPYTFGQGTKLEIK	0.0138

Let us move to another entry and its EC50, fab-CypHer5E internalization, AU565.
Return reported EC50, fab-CypHer5E internalization, AU565. Input binder: HuMab 059 (antibody, V domains shown, also called PC1014-059) VH: QVQLVQSGAEVKKPGASVRVPCKASGYTFTRYGISWVRQAPGQGLEWMGWISAYNGKTYYAQKLQGRVTMTTDTSTSTAYMELRSLRSDDTAVYYCARSPLLWFEELYFDYWGQGTLVTVSS VL: EIVLTQSPGTLSLSPGERATLSCRASQSVSSTYLAWYQQKPGQAPRLLIYGASSRATGIPDRFSGSGSGTDFTLTISRLEPEDFAVYYCQQYGTSLFTFGPGTKVDIK 0.0148

Data provenance is patent US20170369590A1.
